Source of measurements: ChEMBL document CHEMBL5154816

# TESTED ON: Bromodomain-containing protein 3 (Homo sapiens, UniProt Q15059)
# Sequence (Q15059 whole entry, the tested form may be a part): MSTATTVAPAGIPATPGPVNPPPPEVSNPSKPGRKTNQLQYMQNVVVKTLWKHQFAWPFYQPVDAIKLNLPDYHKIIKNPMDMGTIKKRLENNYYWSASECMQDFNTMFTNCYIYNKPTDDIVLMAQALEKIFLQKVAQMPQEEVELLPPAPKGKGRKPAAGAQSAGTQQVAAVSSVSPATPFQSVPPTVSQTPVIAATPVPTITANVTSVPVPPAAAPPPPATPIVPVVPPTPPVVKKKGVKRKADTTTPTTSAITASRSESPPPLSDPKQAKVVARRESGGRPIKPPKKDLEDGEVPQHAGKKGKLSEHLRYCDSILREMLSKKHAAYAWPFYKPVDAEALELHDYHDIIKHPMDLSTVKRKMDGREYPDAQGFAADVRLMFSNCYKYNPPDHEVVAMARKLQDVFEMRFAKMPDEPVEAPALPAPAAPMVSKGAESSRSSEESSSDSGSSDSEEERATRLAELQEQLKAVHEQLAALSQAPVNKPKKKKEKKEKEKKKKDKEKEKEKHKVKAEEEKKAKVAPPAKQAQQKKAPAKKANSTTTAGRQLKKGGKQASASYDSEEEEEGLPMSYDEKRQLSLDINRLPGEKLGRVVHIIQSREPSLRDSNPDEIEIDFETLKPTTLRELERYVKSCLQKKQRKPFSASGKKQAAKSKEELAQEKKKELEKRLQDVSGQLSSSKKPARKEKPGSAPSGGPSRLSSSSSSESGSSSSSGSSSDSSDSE
# ASSAY OVERVIEW: Binding affinity to His6-fused human BRD3 BD1 assessed as dissociation constant in PBS incubated for 1 hrs by biolayer interferometry analysis
pKd: −log10 of the molar value.
OBSERVATION TYPE: pKd

>>> endpoint_result("Cc1cc(F)cc(C)c1Oc1ccc(C(C)(C)O)cc1-c1cn(C)c(=O)c2cc(-c3cnc(C4CCCCC4)[nH]3)oc12")
5.01
>>> endpoint_result("Cc1cc(F)cc(C)c1Oc1ccc(C(C)(C)O)cc1-c1cn(C)c(=O)c2cc(-c3cnc(C4CCCC4)[nH]3)oc12")
5.88
